The reported numbers originate from patent US10570131B2.

- Test system: OXA-15 (Pseudomonas aeruginosa, UniProt Q51574)
- Sequence (Q51574 22-275): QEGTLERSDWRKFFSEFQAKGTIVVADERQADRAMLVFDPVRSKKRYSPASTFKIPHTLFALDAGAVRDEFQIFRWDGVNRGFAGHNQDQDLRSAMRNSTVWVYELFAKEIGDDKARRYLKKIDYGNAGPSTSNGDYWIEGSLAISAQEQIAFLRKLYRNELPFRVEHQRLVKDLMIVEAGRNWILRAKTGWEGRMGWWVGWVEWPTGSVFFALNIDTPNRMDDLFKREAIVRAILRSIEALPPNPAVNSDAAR
- Protocol details: biochemical
Property label: IC50 (nM)
Answers are plain numbers, in nM.

Consider the following illustrative entries.
- Compound: "CNC(=O)CON=C1C[C@@H](C(=O)OC)N2C[C@@H]1N(OS(=O)(=O)[O-])C2=O.[Na+] (mixture of isomers) [Example 1, sulfate]"
  Unit abbrev: "nM"
  IC50: 0.65
- Compound: "NC[C@@H]1CC(=O)[C@@H]2CN1C(=O)N2OS(=O)(=O)O"
  Unit abbrev: "nM"
  IC50: 68
- Compound: "CNC(=O)CON=C1C[C@@H](C(N)=O)N2C[C@@H]1N(OS(=O)(=O)[O-])C2=O.[Na+] (mixture of isomers) [Example 2, sulfate]"
  Unit abbrev: "nM"
  IC50: 0.84

Below are 2 compounds. Give each one its IC50.
1. NC(=O)CON=C1C[C@@H](C(N)=O)N2C[C@@H]1N(OS(=O)(=O)[O-])C2=O.[Na+] (mixture of isomers) [Example 3, sulfate]
2. NC[C@@H]1CC(=NOCC(N)=O)[C@@H]2CN1C(=O)N2OS(=O)(=O)O (mixture of isomers)

Out:
1. 1.6
2. 8

====

- Test system: UniProt P62593
- Sequence (P62593 24-286 limits assumed): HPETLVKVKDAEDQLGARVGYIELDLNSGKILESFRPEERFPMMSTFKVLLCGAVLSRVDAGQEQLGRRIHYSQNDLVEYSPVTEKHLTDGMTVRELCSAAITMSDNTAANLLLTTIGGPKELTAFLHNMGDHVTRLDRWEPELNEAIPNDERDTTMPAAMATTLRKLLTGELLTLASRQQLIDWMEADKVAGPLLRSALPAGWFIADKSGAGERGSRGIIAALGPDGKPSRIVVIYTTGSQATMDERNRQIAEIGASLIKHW
- Protocol details: β-lactamase inhibitory activity, IC50 (nitrocefin hydrolysis)
- Conditions: class (A); 30 min pre-incubation; NCF 200 μM
Property label: IC50
Respond with the figure and its unit, in that order.

- Compound: "NC[C@@H]1CC(=O)[C@@H]2CN1C(=O)N2OS(=O)(=O)O"
  Result: "280 nM"
- Compound: "NC[C@@H]1CC(=NOCC(N)=O)[C@@H]2CN1C(=O)N2OS(=O)(=O)O (mixture of isomers)"
  Result: "110 nM"
- Compound: "CNC(=O)CON=C1C[C@@H](C(N)=O)N2C[C@@H]1N(OS(=O)(=O)[O-])C2=O.[Na+] (mixture of isomers) [Example 2, sulfate]"
  Result: "1.7 nM"
- Compound: "NC(=O)CON=C1C[C@@H](C(N)=O)N2C[C@@H]1N(OS(=O)(=O)[O-])C2=O.[Na+] (mixture of isomers) [Example 3, sulfate]"
  Result: "3 nM"

Query compound follows.
In: Could you tell me which IC50 is on file for CNC(=O)CON=C1C[C@@H](C(=O)OC)N2C[C@@H]1N(OS(=O)(=O)[O-])C2=O.[Na+] (mixture of isomers) [Example 1, sulfate] ?
Out: 3.2 nM

====

- Test system: OXA-48 (Klebsiella pneumoniae)
- Sequence (Q6XEC0 23-265 limits assumed): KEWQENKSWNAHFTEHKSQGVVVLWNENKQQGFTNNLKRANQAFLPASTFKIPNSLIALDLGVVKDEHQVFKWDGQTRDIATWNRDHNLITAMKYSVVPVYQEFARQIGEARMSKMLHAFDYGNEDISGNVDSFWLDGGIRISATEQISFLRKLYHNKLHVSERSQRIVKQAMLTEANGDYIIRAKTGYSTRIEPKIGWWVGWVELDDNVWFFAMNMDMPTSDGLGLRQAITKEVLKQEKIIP
- Protocol details: β-lactamase inhibitory activity, IC50 (nitrocefin hydrolysis)
So basically, if IC50 comes in under 4 nM it's rule met, and if it's 4 nM or more it's rule not met.

In: Does the reported IC50 of the following compound sit strictly below 4 nM? CNC(=O)CON=C1C[C@@H](C(=O)OC)N2C[C@@H]1N(OS(=O)(=O)[O-])C2=O.[Na+] (mixture of isomers) [Example 1, sulfate]
Out: rule met

In: Does the reported IC50 of the following compound sit strictly below 4 nM? NC[C@@H]1CC(=NOCC(N)=O)[C@@H]2CN1C(=O)N2OS(=O)(=O)O (mixture of isomers)
Out: rule not met

In: Does the reported IC50 of the following compound sit strictly below 4 nM? CNC(=O)CON=C1C[C@@H](C(N)=O)N2C[C@@H]1N(OS(=O)(=O)[O-])C2=O.[Na+] (mixture of isomers) [Example 2, sulfate]
Out: rule met

In: Does the reported IC50 of the following compound sit strictly below 4 nM? `NC[C@@H]1CC(=O)[C@@H]2CN1C(=O)N2OS(=O)(=O)O`
Out: rule not met

In: Does the reported IC50 of the following compound sit strictly below 4 nM? NC(=O)CON=C1C[C@@H](C(N)=O)N2C[C@@H]1N(OS(=O)(=O)[O-])C2=O.[Na+] (mixture of isomers) [Example 3, sulfate]
Out: rule not met

====

- Test system: UniProt P05364
- Sequence (P05364 21-381): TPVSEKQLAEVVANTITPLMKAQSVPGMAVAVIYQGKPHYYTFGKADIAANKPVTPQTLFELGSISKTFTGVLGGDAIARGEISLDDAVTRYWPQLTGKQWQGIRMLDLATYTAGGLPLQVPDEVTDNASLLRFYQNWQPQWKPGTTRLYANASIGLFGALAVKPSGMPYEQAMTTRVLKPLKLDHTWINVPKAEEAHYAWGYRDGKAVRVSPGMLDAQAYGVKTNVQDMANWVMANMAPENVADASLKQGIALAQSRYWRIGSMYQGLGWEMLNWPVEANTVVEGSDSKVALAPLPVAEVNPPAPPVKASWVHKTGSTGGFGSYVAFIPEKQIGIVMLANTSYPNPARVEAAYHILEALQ
So I've got a bunch of molecules here, and I need their IC50 values.
Respond with the figure and its unit, in that order.

- Molecule: "CNC(=O)CON=C1C[C@@H](C(=O)OC)N2C[C@@H]1N(OS(=O)(=O)[O-])C2=O.[Na+] (mixture of isomers) [Example 1, sulfate]"
  Property label: "IC50"
  Result: "4.1 nM"
- Molecule: "CNC(=O)CON=C1C[C@@H](C(N)=O)N2C[C@@H]1N(OS(=O)(=O)[O-])C2=O.[Na+] (mixture of isomers) [Example 2, sulfate]"
  Property label: "IC50"
  Result: "3.2 nM"
- Molecule: "NC(=O)CON=C1C[C@@H](C(N)=O)N2C[C@@H]1N(OS(=O)(=O)[O-])C2=O.[Na+] (mixture of isomers) [Example 3, sulfate]"
  Property label: "IC50"
  Result: "7.4 nM"
- Molecule: "NC[C@@H]1CC(=NOCC(N)=O)[C@@H]2CN1C(=O)N2OS(=O)(=O)O (mixture of isomers)"
  Property label: "IC50"
  Result: "11000 nM"

In: Could you tell me which IC50 is on file for `NC[C@@H]1CC(=O)[C@@H]2CN1C(=O)N2OS(=O)(=O)O` ?
Out: 6400 nM

====

- Test system: KPC-2 (Klebsiella pneumoniae)
- Sequence (Q9F663 25-293 limits assumed): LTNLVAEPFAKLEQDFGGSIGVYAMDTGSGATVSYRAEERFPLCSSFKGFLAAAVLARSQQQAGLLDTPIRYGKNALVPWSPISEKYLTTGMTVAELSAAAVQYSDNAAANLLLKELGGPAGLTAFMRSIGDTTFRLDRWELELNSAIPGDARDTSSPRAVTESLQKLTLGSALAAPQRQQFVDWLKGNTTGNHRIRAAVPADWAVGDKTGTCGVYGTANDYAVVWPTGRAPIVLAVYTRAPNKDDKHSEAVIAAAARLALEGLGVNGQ
- Protocol details: β-lactamase inhibitory activity, IC50 (nitrocefin hydrolysis)
- Procedure: Method 1: β-lactamase Inhibitory Activity, Determination of IC50 (Table 1) Enzyme activity was monitored by spectrophotometric measurement of nitrocefin (NCF—TOKU-E, N005) hydrolysis at 485 nm, at room temperature and in assay buffer A: 100 mM Phosphate pH7, 2% glycerol and 0.1 mg/mL Bovine serum albumin (Sigma, B4287). […] After 20 min incubation at room temperature, plates were once again read at 485 nm. […]
So I've got a bunch of compounds here, and I need their IC50 values.
One number for each entry, in µM.

Consider the following illustrative entries.
- Compound: "CNC(=O)CON=C1C[C@@H](C(N)=O)N2C[C@@H]1N(OS(=O)(=O)[O-])C2=O.[Na+] (mixture of isomers) [Example 2, sulfate]"
  Test system: "KPC-2 (Klebsiella pneumoniae)"
  Numeric readout: 0.0039
- Compound: "CNC(=O)CON=C1C[C@@H](C(=O)OC)N2C[C@@H]1N(OS(=O)(=O)[O-])C2=O.[Na+] (mixture of isomers) [Example 1, sulfate]"
  Test system: "KPC-2 (Klebsiella pneumoniae)"
  Numeric readout: 0.0078
- Compound: "NC(=O)CON=C1C[C@@H](C(N)=O)N2C[C@@H]1N(OS(=O)(=O)[O-])C2=O.[Na+] (mixture of isomers) [Example 3, sulfate]"
  Test system: "KPC-2 (Klebsiella pneumoniae)"
  Numeric readout: 0.033
- Compound: "NC[C@@H]1CC(=NOCC(N)=O)[C@@H]2CN1C(=O)N2OS(=O)(=O)O (mixture of isomers)"
  Test system: "KPC-2 (Klebsiella pneumoniae)"
  Numeric readout: 1.8

In: Could you tell me which IC50 is on file for `NC[C@@H]1CC(=O)[C@@H]2CN1C(=O)N2OS(=O)(=O)O` ?
Out: 5.1

====

- Tested on: P. aeruginosa CIP107051
- Protocol details: MIC of compounds alone, broth microdilution
- Type: cell-based
- Conditions: Pseudomonas aeruginosa; strain CIP107051 (TEM-24); read-out: MIC compounds of the invention alone
- Protocol: Compounds of the present invention were assessed against genotyped bacterial strains alone or in combination with the β-lactam ceftazidime (CAZ). […] Briefly, compounds alone according to the invention were prepared in DMSO and spotted (2 μL each) on sterile polystyrene plates (Corning, 3788). […] The MIC of the compounds was defined as the lowest concentration of said compounds that prevented bacterial growth as read by visual inspection.
So I've got a bunch of molecules here, and I need their MIC values.
One number for each entry, in µg/mL.

- Molecule: "NC[C@@H]1CC(=O)[C@@H]2CN1C(=O)N2OS(=O)(=O)O"
  Property label: "MIC"
  Numeric readout: 8

Query molecule follows.
In: Could you tell me which MIC is on file for NC[C@@H]1CC(=NOCC(N)=O)[C@@H]2CN1C(=O)N2OS(=O)(=O)O (mixture of isomers) ?
Out: 4

====

- System: P. aeruginosa CIP105250
- Protocol details: microbe, parasite or virus in culture
- Type: cell-based
- Conditions: Pseudomonas aeruginosa, CIP105250, read-out: MIC compounds of the invention alone
- Description: Compounds of the present invention were assessed against genotyped bacterial strains alone or in combination with the β-lactam ceftazidime (CAZ). […] Briefly, compounds alone according to the invention were prepared in DMSO and spotted (2 μL each) on sterile polystyrene plates (Corning, 3788). […] The MIC of the compounds was defined as the lowest concentration of said compounds that prevented bacterial growth as read by visual inspection.
So I've got a bunch of compounds here, and I need their MIC values.
Answers are plain numbers, in µg/mL.

Below are 2 compounds. Give each one its MIC.
1. NC[C@@H]1CC(=O)[C@@H]2CN1C(=O)N2OS(=O)(=O)O
2. NC[C@@H]1CC(=NOCC(N)=O)[C@@H]2CN1C(=O)N2OS(=O)(=O)O (mixture of isomers)

Out:
1: 16; 2: 32
